- Tested on: CCRF-CEM
- Test Protocol: NCI tumour cell line growth inhibition, 48 h
The source made the active and inactive calls. No stated cut-off is given here; in the data, active = GI50 up to about 1.1 µM and inactive = higher.
Labels: Y = active, N = inactive

                                    molecule  class_label
 0  COc1cc(-c2[nH]ccc2Cl)oc1C1=C2N=C3C=C2C(C(C)C)C1CCCCCCCC3 (stereo unspecified)            Y
 1                     COc1ccc(O)c(C#N)c1C#N            N
 2  COc1cc2c(c(OC)c1OC)-c1ccc(SC)c(=O)cc1C(NC=O)CC2 (stereo unspecified)            Y
 3    O=c1oc2ccccc2cc1-c1csc(Nc2ccc(F)cc2)n1            N
 4  On1c(-c2ccccc2)c(-c2ccccc2N2CCCC2)c2ccccc21            N
 5  COc1cc(S(=O)(=O)Nc2nc(-c3ccc(N4C(=O)/C(=C/C=C/c5ccccc5)N=C4c4ccccc4)cc3)cs2)ccc1Cl            N
 6     COc1ccccc1-n1c(=O)n(C)c(=O)n1C(C)(C)C            N
 7  COc1cc(/C=C2\N=C(c3ccccc3)N(c3ccc(C(=O)c4ccccc4)cc3N3C(=O)/C(=C/c4ccc(O)c(OC)c4)N=C3c3ccccc3)C2=O)ccc1O            N
 8  c1ccc(Nc2nnc(CSc3nc(-c4ccccc4)c(-c4ccccc4)[nH]3)s2)cc1            N
 9  c1cc(C2N3CCCN2CC3)ccn1 (stereo unspecified)            N
10  Cc1cc2[nH]c3c(C#N)c(-c4ccccc4)c(/C=N/c4cccc(C(F)(F)F)c4)c(=O)n3c2cc1C            N

###

- Test system: NCI-H522
- Test Protocol: NCI tumour cell line growth inhibition, 48 h
Active and inactive are the calls of the source. Cut-off read from the data, not from the text of the source: active = GI50 up to about 1.1 µM and inactive = higher.
Labels: active, inactive

>>> print(df.to_string())
                                   compound  assay_system  class_label
0  CCCCc1ccc(Nc2nc(Cl)c3ccn(C4CC(Oc5ccc(C)cc5)C(COc5ccc(C)cc5)O4)c3n2)cc1 (centres undefined)      NCI-H522     inactive
1  O=C1NC(=O)C2C1C1C=C3c4ccccc4N(c4ccccc4)C32[C@H]2C(=O)NC(=O)[C@@H]12 (some centres undefined)      NCI-H522     inactive
2                  COc1c(Cl)cc(Cl)cc1S(=O)O      NCI-H522     inactive
3                     N#Cc1[nH]c(=S)[nH]c1N      NCI-H522     inactive
4  C=C1C(=O)C[C@@]23CCC[C@@]12CC(OCOC)C3 (some centres undefined)      NCI-H522       active
5  O=CN1CCC23CC(O)CCC2C1Cc1cc(Oc2nnnn2-c2ccccc2)cc(O)c13 (centres undefined)      NCI-H522     inactive
6    Cc1cc2c(c(C(N)=O)c1C)-c1cccc(Cl)c1C2=O      NCI-H522     inactive
7                   NC(=O)c1ncn2c1NC(=O)CC2      NCI-H522     inactive
8  N=C(N)CCNC(=O)C1CCC(N)=N1 (centres undefined)      NCI-H522     inactive
